All figures here come from patent US20230181751A1.

Experiment: solubility
Assay type: physicochemical
Details: water, before conjugation

structure_smiles	unit_abbrev	solubility
COc1cc(/C=C/C(=O)CC(=O)/C=C/c2ccc(O)c(OC)c2)ccc1O	µM	20
